Listed here: items and their measured EC50.
- ASSAY_INFO: Inhibition of SDHB in human U2OS cells over-expressing Bim assessed as inhibition of apoptosis preincubated for 1 hr followed by doxycyclin addition to induce Bim protein expression measured after 24 hrs by Cell Titer-Glo assay
Response body: numeric value in nM, unit text excluded.

Examples with answers:
compound=Cc1ccc(O)c(NC(=O)CCCS(=O)(=O)c2nc(-c3cccs3)cc(C(F)(F)F)n2)c1 value_measured=4000
compound=COc1ccc(Cn2cc(-c3cc(C(F)(F)F)nc(S(=O)(=O)CCCC(=O)N4CCCC4)n3)ccc2=O)cc1OC value_measured=27
compound=CS(=O)(=O)c1nc(-c2ccc(=O)n(Cc3cccc(O)c3)c2)cc(C(F)(F)F)n1 value_measured=1820
compound="CS(=O)(=O)c1nc(-c2cccs2)cc(C(F)(F)F)n1 [MLS000044645]" value_measured=749
compound=CCCOc1cccc(Cn2cc(-c3cc(C(F)(F)F)nc(S(C)(=O)=O)n3)ccc2=O)c1 value_measured=69

**Q:** Return value of EC50 for input `O=S(=O)(CCc1ccccc1)c1nc(-c2cccs2)cc(C(F)(F)F)n1` , no commentary.
**A:** 1590

**Q:** Return value of EC50 for input `COCCCS(=O)(=O)c1nc(-c2ccc(=O)n(Cc3ccc(OC)c(OC)c3)c2)cc(C(F)(F)F)n1` , no commentary.
**A:** 282

**Q:** Return value of EC50 for input `COc1ccc(Cn2cc(-c3cc(C(F)(F)F)nc(S(=O)(=O)CCCC(=O)N4CCCCC4)n3)ccc2=O)cc1OC` , no commentary.
**A:** 1.4

**Q:** Return value of EC50 for input `O=S(=O)(Cc1ccc(-c2ccccc2)cc1)c1nc(-c2cccs2)cc(C(F)(F)F)n1` , no commentary.
**A:** 4210

**Q:** Return value of EC50 for input `CS(=O)(=O)c1nc(-c2ccc(=O)n(Cc3ccc(C#N)cc3)c2)cc(C(F)(F)F)n1` , no commentary.
**A:** 3490

* * *

- ASSAY_INFO: Inhibition of SDHB in human U2OS cells over-expressing Bim assessed as inhibition of apoptosis preincubated for 1 hr followed by doxycyclin addition to induce Bim protein expression measured after 24 hrs by Cell Titer-Glo assay
Criterion: EC50 strictly less than 800 nM. Met: true. Not met: false.

Examples with answers:
compound=Cc1ccccc1-c1cc(C(F)(F)F)nc(S(C)(=O)=O)n1 group=false
compound=COc1ccc(Cn2cc(-c3cc(C(F)(F)F)nc(S(=O)(=O)CCCC(N)=O)n3)ccc2=O)cc1OC group=false
compound=CS(=O)(=O)c1nc(-c2ccc(=O)n(Cc3cccc(Cl)c3)c2)cc(C(F)(F)F)n1 group=true
compound=COc1ccc(Cn2cc(-c3cc(C(F)(F)F)nc(S(C)(=O)=O)n3)ccc2=O)cc1OC group=true
compound=CS(=O)(=O)c1nc(-c2ccc(=O)n(Cc3ccccc3Cl)c2)cc(C(F)(F)F)n1 group=false

**Q:** A record lists `CS(=O)(=O)c1nc(N=[N+]=[N-])cc(-c2cccs2)n1` . Is its EC50 below 800 nM?
**A:** false

**Q:** A record lists `CCOc1cccc(Cn2cc(-c3cc(C(F)(F)F)nc(S(C)(=O)=O)n3)ccc2=O)c1` . Is its EC50 below 800 nM?
**A:** true

**Q:** A record lists `C#Cc1cccc(Cn2cc(-c3cc(C(F)(F)F)nc(S(C)(=O)=O)n3)ccc2=O)c1` . Is its EC50 below 800 nM?
**A:** false

**Q:** A record lists `COc1cccc(Cn2cc(-c3cc(C(F)(F)F)nc(S(C)(=O)=O)n3)ccc2=O)c1` . Is its EC50 below 800 nM?
**A:** true

**Q:** A record lists `COc1ccc(Cn2cc(-c3cc(C(F)(F)F)nc(S(=O)(=O)CCCC(=O)N(C)C)n3)ccc2=O)cc1OC` . Is its EC50 below 800 nM?
**A:** true

**Q:** A record lists `Cc1cccc(-c2cc(C(F)(F)F)nc(S(C)(=O)=O)n2)c1` . Is its EC50 below 800 nM?
**A:** false

**Q:** A record lists `CCCCCCCS(=O)(=O)c1nc(-c2ccc(=O)n(Cc3ccc(OC)c(OC)c3)c2)cc(C(F)(F)F)n1` . Is its EC50 below 800 nM?
**A:** true

**Q:** A record lists `COc1ccc(Cn2cc(-c3cc(C(F)(F)F)nc(S(=O)(=O)CCCC(=O)NC45CC6CC(CC(C6)C4)C5)n3)ccc2=O)cc1OC` . Is its EC50 below 800 nM?
**A:** true

**Q:** A record lists `Cc1ccc(-c2cc(C(F)(F)F)nc(S(C)(=O)=O)n2)cc1` . Is its EC50 below 800 nM?
**A:** false

**Q:** A record lists `CS(=O)(=O)c1nc(-c2ccc(=O)n(Cc3ccc(Cl)cc3)c2)cc(C(F)(F)F)n1` . Is its EC50 below 800 nM?
**A:** true

**Q:** A record lists `CCOC(=O)CCS(=O)(=O)c1nc(-c2cccs2)cc(C(F)(F)F)n1` . Is its EC50 below 800 nM?
**A:** false

**Q:** A record lists CS(=O)(=O)c1nc(-c2ccccc2)cc(C(F)(F)F)n1 [MLS000044644] . Is its EC50 below 800 nM?
**A:** false

**Q:** A record lists `COC(=O)c1ccccc1-c1cc(C(F)(F)F)nc(S(C)(=O)=O)n1` . Is its EC50 below 800 nM?
**A:** false

* * *

Listed here: items and their measured EC50.
- ASSAY_INFO: Inhibition of SDHB in human U2OS cells over-expressing Bim assessed as inhibition of apoptosis preincubated for 1 hr followed by doxycyclin addition to induce Bim protein expression measured after 24 hrs by Cell Titer-Glo assay
Response body: numeric value in µM, unit text excluded.

Examples with answers:
smiles_entry=COc1ccc(Cn2cc(-c3cc(C(F)(F)F)nc(S(C)(=O)=O)n3)ccc2=O)cc1 value_measured=0.094
smiles_entry=CS(=O)(=O)c1nc(-c2ccc(=O)n(Cc3cccc(C#N)c3)c2)cc(C(F)(F)F)n1 value_measured=4.06

**Q:** Return value of EC50 for input `COC(=O)c1cccc(-c2cc(C(F)(F)F)nc(S(C)(=O)=O)n2)c1` , no commentary.
**A:** 3.52

**Q:** Return value of EC50 for input `CCS(=O)(=O)c1nc(-c2cccs2)cc(C(F)(F)F)n1` , no commentary.
**A:** 1.43

* * *

- ASSAY_INFO: Inhibition of SDHB in human U2OS cells over-expressing Bim assessed as inhibition of apoptosis preincubated for 1 hr followed by doxycyclin addition to induce Bim protein expression measured after 24 hrs by Cell Titer-Glo assay
QUANTITY_MEASURED: EC50 (µM)
Response body: numeric value in µM, unit text excluded.

Examples with answers:
smiles_entry=CS(=O)(=O)c1nc(-c2ccc(=O)n(Cc3ccccc3)c2)cc(C(F)(F)F)n1 quantity_measured=EC50 value_measured=1.16
smiles_entry=COCCS(=O)(=O)c1nc(-c2ccc(=O)n(Cc3ccc(OC)c(OC)c3)c2)cc(C(F)(F)F)n1 quantity_measured=EC50 value_measured=0.216
smiles_entry=CCCCCS(=O)(=O)c1nc(-c2ccc(=O)n(Cc3ccc(OC)c(OC)c3)c2)cc(C(F)(F)F)n1 quantity_measured=EC50 value_measured=0.364

Below: the item to evaluate.
**Q:** Return value of EC50 for input `CS(=O)(=O)c1nc(-c2cccc(Oc3ccccc3)c2)cc(C(F)(F)F)n1` , no commentary.
**A:** 8.76
